# TARGET UNDER TEST: Carbonic anhydrase 9 (Homo sapiens, UniProt Q16790)
Field: label. Allowed values: Satisfied (Ki < 1000 nM) or Not satisfied (Ki >= 1000 nM).

* O=C(NNC(=S)NCc1ccccc1)c1ccncc1 | Satisfied
* O=C(NNC(=S)Nc1ccccc1)c1ccccc1O | Not satisfied
* O=C(NNC(=S)Nc1ccccc1)c1ccncc1 | Satisfied
* CCN=C(S)NNC(=O)c1ccncc1 | Satisfied
* C=CCNC(=S)NNC(=O)c1ccccc1O | Satisfied

* * *

# TARGET UNDER TEST: Carbonic anhydrase 9 (Homo sapiens)
# RUN DESCRIPTION: Activation of human carbonic anhydrase 9 incubated for 15 mins prior to testing by stopped flow CO2 hydration assay
A collection of molecules and their measured Activity
MEASURED PARAMETER: Activity (µM)

* NC(=S)NNC(=O)c1ccncc1 | 3.61
* CCN=C(S)NNC(=O)c1ccncc1 | 12.5
* C=CCNC(=S)NNC(=O)c1ccncc1 | 12.3
* O=C(NNC(=S)NCc1ccccc1)c1ccncc1 | 0.81
* Cc1ccc(NC(=S)NNC(=O)c2ccncc2)cc1 | 2.57
* O=C(NNC(=S)Nc1ccccc1)c1ccncc1 | 1.42
